Assay: Solubility of flecainide in D/L-lactic acid media
Assay type: physicochemical
Conditions: HPβCD solution with DL-lactic acid, aqueous with cosolvent or surfactant or cyclodextrin, thermodynamic from solid; 20% w/v HPβCD, DL-lactic acid, 24 h, pH 6.5
Quantity Kind: solubility at 24 h (mg/mL)
One number for each entry, in mg/mL.

Prompt: Entry O=C(NCC1CCCCN1)c1cc(OCC(F)(F)F)ccc1OCC(F)(F)F (stereo not shown) [flecainide] : reported solubility at 24 h = ?
Response: 72.4

----------
Assay: physchem
Conditions: HPβCD solution with acetic acid, pH 5.2, aqueous with cosolvent or surfactant or cyclodextrin
Quantity Kind: solubility

Prompt: Entry O=C(NCC1CCCCN1)c1cc(OCC(F)(F)F)ccc1OCC(F)(F)F (stereo not shown) [flecainide acetate] : reported solubility = ?
Response: 135 mg/mL

----------
Assay: physchem
Details: HPβCD solution with acetic acid, pH 4.9, aqueous with cosolvent or surfactant or cyclodextrin
Quantity Kind: solubility
Value and unit, in that order.

Prompt: Entry O=C(NCC1CCCCN1)c1cc(OCC(F)(F)F)ccc1OCC(F)(F)F (stereo not shown) [flecainide acetate] : reported solubility = ?
Response: 136 mg/mL

----------
Test: Solubility of flecainide in D/L-lactic acid media
Assay type: physicochemical
Conditions: 20% w/v HPβCD in water with D-lactic acid, aqueous with cosolvent or surfactant or cyclodextrin, thermodynamic from solid; 20% w/v HPβCD, D-lactic acid, 48 h, pH 5.5
Quantity Kind: solubility at 48 h (mg/mL)
Answers are plain numbers, in mg/mL.

Prompt: Entry O=C(NCC1CCCCN1)c1cc(OCC(F)(F)F)ccc1OCC(F)(F)F (stereo not shown) [flecainide] : reported solubility at 48 h = ?
Response: 88.4

----------
Test: FLE-002 (INSTANT) study: plasma levels of flecainide (Cmax)
Format: in vivo
Conditions: human, inhaled, 60 mg, oral inhalation, 60 mg eTLD, read-out: Cmax Range
Quantity Kind: Cmax

Prompt: Entry O=C(NCC1CCCCN1)c1cc(OCC(F)(F)F)ccc1OCC(F)(F)F (stereo not shown) [flecainide] : reported Cmax = ?
Response: 6.6 to 817 ng/mL

----------
Assay: physchem
Settings: water, thermodynamic from solid, 48 hrs Flecainide Acetate Solubility
Quantity Kind: solubility at 48 h
Value and unit, in that order.

Prompt: Entry O=C(NCC1CCCCN1)c1cc(OCC(F)(F)F)ccc1OCC(F)(F)F (stereo not shown) [flecainide acetate] : reported solubility at 48 h = ?
Response: 65.5 mg/mL

----------
Assay: physchem
Conditions: HPβCD solution with acetic acid, pH 5.1, aqueous with cosolvent or surfactant or cyclodextrin
Quantity Kind: solubility (mg/mL)
Numbers only, in mg/mL.

Prompt: Entry O=C(NCC1CCCCN1)c1cc(OCC(F)(F)F)ccc1OCC(F)(F)F (stereo not shown) [flecainide acetate] : reported solubility = ?
Response: 135
